- ASSAY_OVERVIEW: label from the status in PepcDB records
QUANTITY_MEASURED: protein production

Study these solved cases before continuing.
- INPUT_SEQUENCE: "MSFRVSASSSVKPEKDIRIGLLGASGYTGAEIVRLLANHPHFQVTLMTADRKAGQSMESVFPHLRAQKLPTLVSVKDADFSTVDAVFCCLPHGTTQEIIKELPTALKIVDLSADFRLRNIAEYEEWYGQPHKAVELQKEVVYGLTEILREDIKKARLVANPGCYPTTIQLPLVPLLKANLIKHENIIIDAKSGVSGAGRGAKEANLYSEIAEGISSYGVTRHRHVPEIEQGLSDVAQSKVTVSFTPHLMPMIRGMQSTIYVEMAPGVRTEDLHQQLKTSYEDEEFVKVLDEGVVPRTHNVRGSNYCHMSVFPDRIPGRAIIISVIDNLVKGASGQALQNLNIMLGYPETTGLLHQPLFP"
  QUANTITY_MEASURED: "protein production"
  RESULT: "failed"
- INPUT_SEQUENCE: "SMLSRAKPAVGGESPHTDKRKKKGRKIPKLEDLLSQRDFTGAITLLEFKRHVGEQEDDTNLWIGYCAFHLGDYKRALEEYENATKEENCNPEVWVNLACTYFFLGMYKQAEAAGFKAPKSRLQNRLLFHLAHKFNDEKKLMNFHQNLQDIKEDQLSLASNSEIHLPLPPECWD"
  QUANTITY_MEASURED: "protein production"
  RESULT: "failed"
- INPUT_SEQUENCE: "MKLSQQSQAIIESAIQKAINKYTCGCEQTIVTDIHIQPNQNSGELFIYDDEDEELSSVTIDEWTAYEGDDFCEDAERIFRTVLCRMKENGSFDKLTILKPYSFVLVDEDKETISELLLVDDDTLLVNDELLKGLDKELDDFLKDLLEKLEHHHHHH"
  QUANTITY_MEASURED: "protein production"
  RESULT: "not failed"
- INPUT_SEQUENCE: "MRIVAPVMPRHFDEAQAIDISKYEDVNLIEWRADFLPKDEIVAVAPAIFEKFAGKEIIFTLRTVQEGGNITLSSQEYVDIIKEINAIYNPDYIDFEYFTHKSVFQEMLDFPNLILSYHNFEETPENLMEAFSEMTKLAPRVVKIAVMPQSEQDVLDLMNYTRGFKTLNPEQEFATISMGKLGRLSRFAGDVIGSSWTYVSLDHVSGPGQVTLNDMKRIIEVLEMDISN"
  QUANTITY_MEASURED: "protein production"
  RESULT: "not failed"

Pending sequence:
The reported protein production of the sequence MPTFLLVNDDGYFSPGINALREALKSLGRVVVVAPDRNLSGVGHSLTFTEPLKMRKIDTDFYTVIDGTPADCVHLGYRVILEEKKPDLVLSGINEGPNLGEDITYSGTVSGAMEGRILGIPSIAFSAFGRENIMFEEIAKVCVDIVKKVLNEGIPEDTYLNVNIPNLRYEEIKGIKVTRQGKRAYKERVFKYIDPYGKPFYWIAAEEFGWHAEEGTDYWAVLNGYVSVTPLHLDLTNYKVMKSIKYLEDSP was not failed

====

- ASSAY_OVERVIEW: label from the status in PepcDB records
QUANTITY_MEASURED: protein production

- INPUT_SEQUENCE: "MNFPLVLLILLVVTGGIWLLDYFVLRHKRVSGNTEEPWWVEYPKSFFPIILIVFSLRSFLVEPFKIPSGSMIPTLLIGDFILVNKYTYGIRLPVANLKIIDMNEPQRGEVMVFRFPEDPSIDYIKRVIGVPGDMVTYRNKQLSINDVPVQLEQGGDYKYIDGPAYIYTQRFKENMDGSEHDILINEDMPDIQLSAIHHFPNRENCTFDRTGFSCKVPEGNYFTLGDNRDGSSDSRYWGFVPENHIVGKAFLIWWNFNDLSRIGTLIK"
  QUANTITY_MEASURED: "protein production"
  RESULT: "failed"
- INPUT_SEQUENCE: "MTRRAAEEILPSSLFRDPDTERVTARTGAYLKIGVIAPALMVADVWLAQQLFPGFDAGAQFISELGGPEAPMPEIFNYGMVIAGIAGLFAGAGFAHALEHAGGRRVVSAFAGLFVALTGLGAIFAGIFHWPDPMHRACGVGLGIQFAPLFAAWALWGKPDYRRLAQFSLGWFFGLLLVFALLTGVWNVRTGYDVGYWQRGHAFLGLLWLAIAAWTLERGWRAAVMSEIETASA"
  QUANTITY_MEASURED: "protein production"
  RESULT: "failed"

====

- ASSAY_OVERVIEW: label from the status in PepcDB records

- INPUT_SEQUENCE: "MTMQDILYYIHTYGLIVLFLIVVGEYCVPAMPTGIVMPAAGIIAGQAHKGIIKVMLISLIAGLVGSIILYLLGYFVGSTLLEKIKIKHPKIEDKLEKTEKILEKHSFLGIFICRLIPIIRTYVSLICGTVKVNFFKFIIFSIPGIFCWNFTGIVVGYFFGGKIRF"
  protein production: "failed"
- INPUT_SEQUENCE: "MSIDFYNQNASSFYASTVEVDSSSLLEQFTPYLPKGGSVLDAGCGSGRDSKRLIELGFHVDAFDASAALATLAQQLLGKPVRVATFMQFTSTLQYDGIWACASLLHVSKASLPDAFAHLASMLKSGGAFYCSFKYGQGEVERDGRSFTHCDEALLAELLTGSPLVIDKVWLTLEHHHHHH"
  protein production: "failed"

====

- ASSAY_OVERVIEW: label from the status in PepcDB records
QUANTITY_MEASURED: protein production

Example entries and their recorded answers appear below.
- INPUT_SEQUENCE: "MDITEKLRLITRNAEEVVTEEELRQLIETKEKPRAYVGYEPSGEIHLGHMMTVQKLMDLQEAGFEIIVLLADIHAYLNEKGTFEEIAEVADYNKKVFIALGLDESRAKFVLGSEYQLSRDYVLDVLKMARITTLNRARRSMDEVSRRKEDPMVSQMIYPLMQALDIAHLGVDLAVGGIDQRKIHMLARENLPRLGYSSPVCLHTPILVGLDGQKMSSSKGNYISVRDPPEEVERKIRKAYCPAGVVEENPILDIAKYHILPRFGKIVVERDAKFGGDVEYASFEELAEDFKSGQLHPLDLKIAVAKYLNMLLEDARKRLGVSV"
  protein production: "not failed"
- INPUT_SEQUENCE: "MASGQGPGPPRQECGEPALPSASEEQVAQDTEEVFRSYVFYRHQQEQEAEGVAAPADPEMVTLPLQPSSTMGQVGRQLAIIGDDINRRYDSEFQTMLQHLQPTAENAYEYFTKIATSLFESGINWGRVVALLGFGYRLALHVYQHGLTGFLGQVTRFVVDFMLHHCIARWIAQRGGWVAALNLGNGPILNVLVVLGVVLLGQFVVRRFFKS"
  protein production: "not failed"
- INPUT_SEQUENCE: "IPLKSIEVPFEGELLPGYAIISEDKAQDTLIVVGGGDTSREDLFYMLGYSGWEHDYNVLMVDLPGQGKNPNQGLHFEVDARAAISAILDWYQAPTEKIAIAGFSGGGYFTAQAVEKDKRIKAWIASTPIYDVAEVFRISFSTALKAPKTILKWGSKLVTSVNKVAEVNLNKYAWQFGQVDFITSVNEVLEQAQIVDYNKIDVPSLFLVGAGEDSELMRQSQVLYDNFKQRGIDVTLRKFSSESGADAHCQVNNFRLMHYQVFEWLNHIFKKKD"
  protein production: "failed"
- INPUT_SEQUENCE: "MNVDARVGVAVDGAQSALNTATTVHSSVVMTQIKPQAKLGTFQNLLAGGIAGAISKTCTAPLARLTILFQLQGMQSEGAVLSRPNLRREASRIINEEGYRAFWKGNLVTVVHRIPYTAVNFYAYEKYNLFFNSNPVVQSFIGNTSGNPIVHFVSGGLAGITAATATYPLDLVRTRLAAQRNAIYYQGIEHTFRTICREEGILGLYKGLGATLLGVGPSLAINFAAYESMKLFWHSHRPNDSDLVVSLVSGGLAGAVSSTDDKLFDAHNYVATYPLDLVRRRMQVEGAGGRARVYNTGLFGTFKHIFKSEGFKGIYRGILPEYYKVVPGVGIVFMTYDALRRLLTSLPD"
  protein production: "failed"
- INPUT_SEQUENCE: "VGKPKMDVDLLQVDADLKKEIFDAYYNTMKTAVMTEEKLAREVEIDKVKDTVKEVYAEKFSEHEEEAQLLKEVKQIAEDLEKDVVRELITIDKIRPDGRKLDEIRH"
  protein production: "not failed"

Notebook: MTIFYYSFIILALLACLTVSFRIKKQQYLILYLFVIVLLSLLAGLRYDNADYENYLEIFKNPWEVSPDKGFSAFVLIVRWFTTSPIYMFLPVAIIAVSLNISSYRKYSPYLFVSVLFYFVHSFLLKEYVQIRAGLSCAICLYAIRYIEYKSLWKYIACMVIAMSIHMSSIIFFPMFWVYYFMKNKSNSCLMYFLLLSFIIGTLYPFGQVIKAYVPFLDETSRIATYANWDQFNNEIGILTNFTTLKQIILCVLCYIYWTRLKEVISCFSVLYLAYVLSTCWLMLFNDFVIIGARMATFLSVGEPIFFAGFLCLFNKQSRILVTLFFIIISCIIMDVNLHTKNLGEFKLYPLTSLF , protein production read as failed

According to the records, this sequence MMRLLGILFILLSSSFNVYAQLPQVSAGSIERLTSFPSAFVPPRNIDIWLPAGYDKQQRYAVLYMHDGQMLFDATTSWNKQEWQIDEVASRLIKAGKTQPFIVVGIDNAGENRHSEYFPQQPFENLSQAQQTALYQLQRTKNQALFSQQVYSDRYLKFLVTELKPYIDSHYSVYTDAAHTFVMGSSMGGLISLYAISEYPHIFGGAACLSTHWPGTFEQQNNPIPPAFFNYMQQKLPDPSTHKLYFDHGTATLDAWYPQLQAKADKIIEAKGYTSQNWQSLIFEGAEHSEHAWAARLDIPLIFLLA displays protein production of failed

Measured protein production of MNKMIILLVIAIIFLHMCLIWLWYRYTNNPSVVDVGWASGLTLAGLIYLNNQEFSLRSLLLVLALLTWGIRLGGYLWWTRIRLKKIDKRYLALSNDWKLAKPLGFFLNFQLQGVLICLVSIPWYFSSSETQTALNLLDGLALIIFLTALILETVADNQLQDFKKNYPGKVCNQKLWRYCRHPNYFYEWLVWCSFTLFALSAPYGWIAIISPLTLYLIMTKITAPMTEQGSIESRGNLYIEYQKVTPMFFPKWLKNNSTPRK : failed

The sequence identified as SQEQAQTTDWRATLKTIRNGVHKIDTYLNAALDLLGGEDGLCQYKCSDGSKPFPRYGYKPSPPNGCGSPLFGVHLNIGIPSLTKCCNQHDRCYETCGKSKNDCDEEFQYCLSKICRDVQKTLGLTQHVQACETTVELLFDSVIHLGCKPYLDSQRAACRCHYEEKTDL registered its protein production at not failed

// protein production lookup, sequence = MQLEPRINTFSMEAMFTFSSTFLYDSIVDSSRPILATSLLGCDVTDPERRATTACCICEETLSELHMTRPTQKVKAVSGPTRERHIIFSTCKPVL , result: failed

Input MIDSQFQFTVLTPTYNRAVTLHRVFQSLQRQTCRDFEWVVVDDGSTDNTHEVVRAWQAQADFPIRYVWQHNQHKKTAFNRGVREARGMLVVGLDSDDEIPPDALAILKDAWEGIPADRRETYVAVTGLCARPDGSIVGDRFPQDVFDSTAVDMYFRYRVQGEKFGAMRADVLRRFPFPEDVAGFVPESLVWWAISRAGYLSRFINRVVRVYHDTPGGLSQGGVSLSSNIQGLYLLAWDMLQHHLDWFRYRPREFIMAAARYTRFRLHLDNSGLPTAVQAYRLTQPSARLLVLLMWPLGYLLYRRDRRRGVA . Output protein production: failed

Briefly, protein production measured for METSMRYTSNSKSMKIHAKEKVPVNSKTHLQLHGELDTGTGAPSYFCAMIRHFFPEASTGLGVGLHYDKRQKLRCLVRGKKEFPVRADKRVTFNIKGRCDIDQDLNQKNPKGAAEFAWNIMDFKEDQDVRIKVGYEMFDKVPYMQIRENNWTLNANMKGKWNLRYDL : failed
